- Test system: A2058
- assay_comment: Antiproliferative activity against human A2058 cells assessed as reduction in cell viability measured after 96 hrs by MTT assay
- Format: functional, cell-based
- test_settings: A2058, 96 h
value_kind: IC50 (nM)
Respond with the bare value in nM.

chem_smiles: CNc1nc2ccccc2n2c(-c3ccc(O)c(O)c3)cnc12
IC50 [nM]: 4

Pending molecule:
Qu. Check the records and state IC50 for `CNc1nc2ccccc2n2c(-c3cccc(OC)c3)cnc12`
Ans. 185
